test system: GBM43; experiment: TMZ IC50 with simultaneous XRT; format: cell-based; conditions: Homo sapiens; treated with XRT (2 Gy) simultaneously
measurement.kind: IC50 (µM)
// note: answer is a bare numeric in µM

Asked: Requested read-out IC50, target or system GBM43, entry Cn1nnc2c(C(N)=O)ncn2c1=O [TMZ, temozolomide]
Given back: 37

---

test system: GBM39; assay: Glioma cell viability (MTT) under XRT-TMZ with or without CRAd-S-pk7; type: cell-based; conditions: Homo sapiens, treated with XRT (2 Gy) simultaneously
measurement.kind: pIC50
Remember the convention: pIC50 equals -log10 of concentration in molar.

Asked: I would be grateful if you could share the reported pIC50 for Cn1nnc2c(C(N)=O)ncn2c1=O [TMZ, temozolomide] .
Given back: 4.30
